- assay_system: T1, human H7CR (B7-H7 counter-receptor) (human, UniProt Q96BF3 23-282)
- T1 construct: Used for H7CR on CHO.hH7CR transfectants, human T cells and tonsil tissue; also called B7-H7CR; CD28H
- T1 sequence: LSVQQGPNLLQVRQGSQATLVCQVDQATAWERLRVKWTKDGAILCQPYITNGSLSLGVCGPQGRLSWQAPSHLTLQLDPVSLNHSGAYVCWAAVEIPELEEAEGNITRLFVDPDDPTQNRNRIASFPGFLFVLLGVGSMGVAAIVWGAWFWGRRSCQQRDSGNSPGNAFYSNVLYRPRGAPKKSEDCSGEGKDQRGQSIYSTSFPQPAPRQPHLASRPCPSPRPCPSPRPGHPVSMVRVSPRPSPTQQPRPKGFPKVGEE
- assay_comment: binding to human H7CR as endogenously expressed on the surface of a cell
measured_quantity: binding result

>>> observed_measurement("4.5 humanized variant 3 (HC1-1 / LC1-3) (antibody, V domains shown, Variable domains only; detected with anti-hIg secondary; also called VH1A / VL1C) VH: QVQLQESGPGLVKPSQTLSLTCTVSGFSITTGGYYWSWIRQHPGKGLEWIGYIYTSGRTYYNPSLKSRVTISVDTSKNQFSLKLSSVTAADTAVYYCADMADKGGWFAYWGQGTLVTVSS VL: DIVMTQSPDSLAVSLGERATINCLSSQSLFSSNTKRNYLNWYQQKPGQSPKLLIYHASTRLSGVPDRFSGSGSGTDFTLTISSLQAEDVADYFCQQHYETPLTFGDGTRLEIK")
"binds"
>>> observed_measurement("4.5 humanized variant 12 (HC1-2 / LC2-3) (antibody, V domains shown, Variable domains only; detected with anti-hIg secondary; also called VH1B / VL2C) VH: QVQLQESGPGLVKPSQTLSLTCTVSGFSITTGGYYWNWIRQHPGKKLEWIGYIYTSGRTSYNPSLKSRVTISRDTSKNQFSLKLSSVTAADTAVYYCADMADKGGWFAYWGQGTLVTVSS VL: DIVMTQTPSSLPVTPGEPASISCLSSQSLFSSNTKRNYLNWYLQKPGQSPKLLIYHASTRLSGVPDRFSGSGSGTDFTLKISRVEAEDVGDYFCQQHYETPLTFGDGTRLEIK")
"binds"
>>> observed_measurement("4.5 humanized variant 4 (HC1-1 / LC2-1) (antibody, V domains shown, Variable domains only; detected with anti-hIg secondary; also called VH1A / VL2A) VH: QVQLQESGPGLVKPSQTLSLTCTVSGFSITTGGYYWSWIRQHPGKGLEWIGYIYTSGRTYYNPSLKSRVTISVDTSKNQFSLKLSSVTAADTAVYYCADMADKGGWFAYWGQGTLVTVSS VL: DIVMTQTPLSLPVTPGEPASISCRSSQSLFSSNTKRNYLDWYLQKPGQSPQLLIYHASYRASGVPDRFSGSGSGTDFTLKISRVEAEDVGVYYCQQHYETPLTFGQGTRLEIK")
"binds"
